System: HeLa Kyoto
Test: melting temperature (median over replicates), in situ; higher = more thermally stable
Details: cell cycle stage: mitosis
Measured melting temperature accompanies every entry in the list below.
Please make sure the unit comes right after the number.

[
  {
    "record.sequence": "MALKQISSNKCFGGLQKVFEHDSVELNCKMKFAVYLPPKAETGKCPALYWLSGLTCTEQNFISKSGYHQSASEHGLVVIAPDTSPRGCNIKGEDESWDFGTGAGFYVDATEDPWKTNYRMYSYVTEELPQLINANFPVDPQRMSIFGHSMGGHGALICALKNPGKYKSVSAFAPICNPVLCPWGKKAFSGYLGTDQSKWKAYDATHLVKSYPGSQLDILIDQGKDDQFLLDGQLLPDNFIAACTEKKIPVVFRLQEGYDHSYYFIATFITDHIRHHAKYLNA [ESD]",
    "melting temperature": "56.4 °C"
  }
]

Alright, here's another sequence for you.
Any idea what its melting temperature is? The sequence is MSLQSRLSGRLAQLRAAGQLLVPPRPRPGHLAGATRTRSSTCGPPAFLGVFGRRARTSAGVGAWGAAAVGRTAGVRTWAPLAMAAKVDLSTSTDWKEAKSFLKGLSDKQREEHYFCKDFVRLKKIPTWKEMAKGVAVKVEEPRYKKDKQLNEKISLLRSDITKLEVDAIVNAANSSLLGGGGVDGCIHRAAGPLLTDECRTLQSCKTGKAKITGGYRLPAKYVIHTVGPIAYGEPSASQAAELRSCYLSSLDLLLEHRLRSVAFPCISTGVFGYPCEAAAEIVLATLREWLEQHKDKVDRLIICVFLEKDEDIYRSRLPHYFPVA [MACROD1]
51.1 °C

---

Measured thermal stability score accompanies every entry in the list below.
Test system: HeLa Kyoto
Experiment: thermal stability score vs G1/S (z-score of summed log2 fold changes over temperatures); higher = more thermally stable than in G1/S
Settings: cell cycle stage: mitosis
Just the number, please, no unit after it.

// solved cases for thermal stability score follow
[
  {
    "substance": "CIAPIN1",
    "measured.result": 3.13
  },
  {
    "substance": "MASRGATRPNGPNTGNKICQFKLVLLGESAVGKSSLVLRFVKGQFHEFQESTIGAAFLTQTVCLDDTTVKFEIWDTAGQERYHSLAPMYYRGAQAAIVVYDITNEESFARAKNWVKELQRQASPNIVIALSGNKADLANKRAVDFQEAQSYADDNSLLFMETSAKTSMNVNEIFMAIAKKLPKNEPQNPGANSARGRGVDLTEPTQPTRNQCCSN [RAB5A]",
    "measured.result": -3.38
  },
  {
    "substance": "MAAPVDLELKKAFTELQAKVIDTQQKVKLADIQIEQLNRTKKHAHLTDTEIMTLVDETNMYEGVGRMFILQSKEAIHSQLLEKQKIAEEKIKELEQKKSYLERSVKEAEDNIREMLMARRAQ [PFDN1]",
    "measured.result": -7.79
  },
  {
    "substance": "MEEMSGESVVSSAVPAAATRTTSFKGTSPSSKYVKLNVGGALYYTTMQTLTKQDTMLKAMFSGRMEVLTDSEGWILIDRCGKHFGTILNYLRDGAVPLPESRREIEELLAEAKYYLVQGLVEECQAALQNKDTYEPFCKVPVITSSKEEQKLIATSNKPAVKLLYNRSNNKYSYTSNSDDNMLKNIELFDKLSLRFNGRVLFIKDVIGDEICCWSFYGQGRKIAEVCCTSIVYATEKKQTKVEFPEARIYEETLNILLYEAQDGRGPDNALLEATGGAAGRSHHLDEDEERERIERVRRIHIKRPDDRAHLHQ [KCTD10]",
    "measured.result": 1.24
  },
  {
    "substance": "MTMDGDSSTTDASQLGISADYIGGSHYVIQPHDDTEDSMNDHEDTNGSKESFREQDIYLPIANVARIMKNAIPQTGKIAKDAKECVQECVSEFISFITSEASERCHQEKRKTINGEDILFAMSTLGFDSYVEPLKLYLQKFREAMKGEKGIGGAVTATDGLSEELTEEAFTNQLPAGLITTDGQQQNVMVYTTSYQQISGVQQIQFS [NFYB]",
    "measured.result": 0.0131
  },
  {
    "substance": "MNIVVEFFVVTFKVLWAFVLAAARWLVRPKEKSVAGQVCLITGAGSGLGRLFALEFARRRALLVLWDINTQSNEETAGMVRHIYRDLEAADAAALQAGNGEEEILPHCNLQVFTYTCDVGKRENVYLTAERVRKEVGEVSVLVNNAGVVSGHHLLECPDELIERTMMVNCHAHFWTTKAFLPTMLEINHGHIVTVASSLGLFSTAGVEDYCASKFGVVGFHESLSHELKAAEKDGIKTTLVCPYLVDTGMFRGCRIRKEIEPFLPPLKPDYCVKQAMKAILTDQPMICTPRLMYIVTFMKSILPFEAVVCMYRFLGADKCMYPFIAQRKQATNNNEAKNGI [RDH10]",
    "measured.result": -3.77
  },
  {
    "substance": "MAAALWGFFPVLLLLLLSGDVQSSEVPGAAAEGSGGSGVGIGDRFKIEGRAVVPGVKPQDWISAARVLVDGEEHVGFLKTDGSFVVHDIPSGSYVVEVVSPAYRFDPVRVDITSKGKMRARYVNYIKTSEVVRLPYPLQMKSSGPPSYFIKRESWGWTDFLMNPMVMMMVLPLLIFVLLPKVVNTSDPDMRREMEQSMNMLNSNHELPDVSEFMTRLFSSKSSGKSSSGSSKTGKSGAGKRR [EMC7]",
    "measured.result": -0.331
  },
  {
    "substance": "MDPETRGQEIIKVTPLQQMLASCTGAILTSVIVTPLDVVKIRLQAQNNPLPKGKCFVYSNGLMDHLCVCEEGGNKLWYKKPGNFQGTLDAFFKIIRNEGIKSLWSGLPPTLVMAVPATVIYFTCYDQLSALLRSKLGENETCIPIVAGIVARFGAVTVISPLELIRTKMQSKKFSYVELHRFVSKKVSEDGWISLWRGWAPTVLRDVPFSAMYWYNYEILKKWLCEKSGLYEPTFMINFTSGALSGSFAAVATLPFDVVKTQKQTQLWTYESHKISMPLHMSTWIIMKNIVAKNGFSGLFSGLIPRLIKIAPACAIMISTYEFGKAFFQKQNVRRQQY [SLC25A40]",
    "measured.result": -2.29
  },
  {
    "substance": "MALLLCFVLLCGVVDFARSLSITTPEEMIEKAKGETAYLPCKFTLSPEDQGPLDIEWLISPADNQKVDQVIILYSGDKIYDDYYPDLKGRVHFTSNDLKSGDASINVTNLQLSDIGTYQCKVKKAPGVANKKIHLVVLVKPSGARCYVDGSEEIGSDFKIKCEPKEGSLPLQYEWQKLSDSQKMPTSWLAEMTSSVISVKNASSEYSGTYSCTVRNRVGSDQCLLRLNVVPPSNKAGLIAGAIIGTLLALALIGLIIFCCRKKRREEKYEKEVHHDIREDVPPPKSRTSTARSYIGSNHSSLGSMSPSNMEGYSKTQYNQVPSEDFERTPQSPTLPPAKVAAPNLSRMGAIPVMIPAQSKDGSIV [CXADR]",
    "measured.result": -2.2
  },
  {
    "substance": "MTDLVAVWDVALSDGVHKIEFEHGTTSGKRVVYVDGKEEIRKEWMFKLVGKETFYVGAAKTKATINIDAISGFAYEYTLEINGKSLKKYMEDRSKTTNTWVLHMDGENFRIVLEKDAMDVWCNGKKLETAGEFVDDGTETHFSIGNHDCYIKAVSSGKRKEGIIHTLIVDNREIPEIAS [FAIM]",
    "measured.result": 1.16
  }
]

Alright, here's another substance for you.
Any idea what its thermal stability score is? The substance is MFRGLSSWLGLQQPVAGGGQPNGDAPPEQPSETVAESAEEELQQAGDQELLHQAKDFGNYLFNFASAATKKITESVAETAQTIKKSVEEGKIDGIIDKTIIGDFQKEQKKFVEEQHTKKSEAAVPPWVDTNDEETIQQQILALSADKRNFLRDPPAGVQFNFDFDQMYPVALVMLQEDELLSKMRFALVPKLVKEEVFWRNYFYRVSLIKQSAQLTALAAQQQAAGKEEKSNGREQDLPLAEAVRPKTPPVVIKSQLKTQEDEEEISTSPGVSEFVSDAFDACNLNQEDLRKEMEQLVLDKKQEETAVLEEDSADWEKELQQELQEYEVVTESEKRDENWDKEIEKMLQEEN [SYAP1]
-1.49

---

Measured melting temperature accompanies every entry in the list below.
Tested on: HeLa Kyoto
Assay: melting temperature (median over replicates), in situ; higher = more thermally stable
Conditions: cell cycle stage: mitosis
The response must be a number in °C with no trailing unit.

// solved cases for melting temperature follow
[
  {
    "record.sequence": "MGTDSRAAKALLARARTLHLQTGNLLNWGRLRKKCPSTHSEELHDCIQKTLNEWSSQINPDLVREFPDVLECTVSHAVEKINPDEREEMKVSAKLFIVESNSSSSTRSAVDMACSVLGVAQLDSVIIASPPIEDGVNLSLEHLQPYWEELENLVQSKKIVAIGTSDLDKTQLEQLYQWAQVKPNSNQVNLASCCVMPPDLTAFAKQFDIQLLTHNDPKELLSEASFQEALQESIPDIQAHEWVPLWLLRYSVIVKSRGIIKSKGYILQAKRRGS [GCLM]",
    "target.of.assay": "HeLa Kyoto",
    "measured.result": 49
  },
  {
    "record.sequence": "MGGCVGAQHDSSGSLNENSEGTGVALGRNQPLKKEKPKWKSDYPMTDGQLRSKRDEFWDTAPAFEGRKEIWDALKAAAHAFESNDHELAQAIIDGANITLPHGALTECYDELGNRYQLPVYCLAPPINMIEEKSDIETLDIPEPPPNSGYECQLRLRLSTGKDLKLVVRSTDTVFHMKRRLHAAEGVEPGSQRWFFSGRPLTDKMKFEELKIPKDYVVQVIVSQPVQNPTPVEN [UBTD2]",
    "target.of.assay": "HeLa Kyoto",
    "measured.result": 53.7
  }
]

Alright, here's another sequence for you.
Any idea what its melting temperature is? The sequence is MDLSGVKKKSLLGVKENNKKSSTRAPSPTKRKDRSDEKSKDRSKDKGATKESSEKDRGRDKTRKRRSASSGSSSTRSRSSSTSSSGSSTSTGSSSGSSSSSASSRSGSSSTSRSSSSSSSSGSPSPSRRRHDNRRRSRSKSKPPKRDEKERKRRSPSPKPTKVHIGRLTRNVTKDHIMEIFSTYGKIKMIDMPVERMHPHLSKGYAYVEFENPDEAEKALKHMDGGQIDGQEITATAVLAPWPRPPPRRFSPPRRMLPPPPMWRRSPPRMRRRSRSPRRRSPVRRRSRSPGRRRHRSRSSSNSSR [RNPS1]
50
